I'd appreciate it if you could supply GI50 values for the items below.
test system: LNCaP; test: Cytotoxicity against human LNcaP cells after 48 hrs by SRB assay; type: functional
Kindly answer with a numeric value in nM, unit omitted.

Qu. Answer briefly: GI50 recorded on LNCaP for C/C=C1\NC(=O)[C@H](Cc2ccccc2)NC(=O)[C@@H](C(C)C)NC(=O)[C@@H]([C@H](C)CC)NC(=O)[C@H](NC(=O)[C@H](NC(=O)[C@H](CCCC[N+](C)(C)C)NC(=O)[C@H]2CCCN2C(=O)[C@H](NC(=O)[C@@H](NC(=O)[C@@H](NC(=O)[C@H](NC(=O)CC[C@@H](C)CC)C(C)C)[C@@H](C)O)C(C)C)C(C)C)[C@H](C)CC)[C@H](C)OC(=O)[C@H](C(C)C)NC1=O
Ans. 1060

Qu. Answer briefly: GI50 recorded on LNCaP for C=C1NC(=O)[C@H](Cc2ccccc2)NC(=O)[C@@H](C(C)C)NC(=O)[C@@H]([C@H](C)CC)NC(=O)[C@H](NC(=O)[C@H](NC(=O)[C@H](CCCN)NC(=O)[C@H]2CCCN2C(=O)[C@H](NC(=O)[C@@H](NC(=O)[C@@H](NC(=O)[C@H](NC(=O)CCCC(C)C)C(C)C)[C@@H](C)O)C(C)C)C(C)C)[C@H](C)CC)[C@H](C)OC(=O)[C@H](C(C)C)NC1=O
Ans. 1440

Qu. Answer briefly: GI50 recorded on LNCaP for C/C=C1\NC(=O)[C@H](Cc2ccccc2)NC(=O)[C@@H](C(C)C)NC(=O)[C@@H]([C@H](C)CC)NC(=O)[C@H](NC(=O)[C@H](NC(=O)[C@H](CCCN)NC(=O)[C@H]2CCCN2C(=O)[C@H](NC(=O)[C@@H](NC(=O)[C@@H](NC(=O)[C@H]2CCCN2C(=O)CCCC(C)C)[C@@H](C)O)C(C)C)C(C)C)[C@H](C)CC)[C@H](C)OC(=O)[C@H](C(C)C)NC1=O
Ans. 1160

Qu. Answer briefly: GI50 recorded on LNCaP for C/C=C1\NC(=O)[C@H](Cc2ccccc2)NC(=O)[C@@H](C(C)C)NC(=O)[C@@H]([C@H](C)CC)NC(=O)[C@H](NC(=O)[C@H](NC(=O)[C@H](CCCN)NC(=O)[C@H]2CCCN2C(=O)[C@H](NC(=O)[C@H](C)NC(=O)[C@@H](NC(=O)[C@H](NC(=O)CCCC(C)C)C(C)C)[C@@H](C)O)C(C)C)[C@H](C)CC)[C@H](C)OC(=O)[C@H](C(C)C)NC1=O
Ans. 2800

Qu. Answer briefly: GI50 recorded on LNCaP for C/C=C1\NC(=O)[C@H](Cc2ccccc2)NC(=O)[C@@H](C(C)C)NC(=O)[C@@H]([C@H](C)CC)NC(=O)[C@H](NC(=O)[C@H](NC(=O)[C@H](CCCN)NC(=O)[C@H]2CCCN2C(=O)[C@H](NC(=O)[C@@H](NC(=O)[C@@H](NC(=O)[C@H](NC(=O)c2ccccc2)C(C)C)[C@@H](C)O)C(C)C)C(C)C)[C@H](C)CC)[C@H](C)OC(=O)[C@H](C(C)C)NC1=O
Ans. 1190

Qu. Answer briefly: GI50 recorded on LNCaP for C/C=C1\NC(=O)[C@H](Cc2ccccc2)NC(=O)[C@@H](C(C)C)NC(=O)[C@@H]([C@H](C)CC)NC(=O)[C@H](NC(=O)[C@H](NC(=O)[C@H](CCCNC(=O)C(F)(F)F)NC(=O)[C@H]2CCCN2C(=O)[C@H](NC(=O)[C@@H](NC(=O)[C@@H](NC(=O)[C@H](NC(=O)CC[C@@H](C)CC)C(C)C)[C@@H](C)OC(=O)C(F)(F)F)C(C)C)C(C)C)[C@H](C)CC)[C@H](C)OC(=O)[C@H](C(C)C)NC1=O
Ans. 1140

Qu. Answer briefly: GI50 recorded on LNCaP for C/C=C1\NC(=O)[C@H](Cc2ccccc2)NC(=O)[C@@H](C(C)C)NC(=O)[C@@H]([C@H](C)CC)NC(=O)[C@H](NC(=O)[C@H](NC(=O)[C@H](CCCN)NC(=O)[C@H]2CCCN2C(=O)[C@H](NC(=O)[C@@H](NC(=O)[C@@H](NC(=O)[C@H](NC(=O)CCCCC(C)(F)F)C(C)C)[C@@H](C)O)C(C)C)C(C)C)[C@H](C)CC)[C@H](C)OC(=O)[C@H](C(C)C)NC1=O
Ans. 1840

Qu. Answer briefly: GI50 recorded on LNCaP for C/C=C1\NC(=O)[C@H](Cc2ccccc2)NC(=O)[C@@H](C(C)C)NC(=O)[C@@H](C(C)C)NC(=O)[C@H](NC(=O)[C@H](NC(=O)[C@H](CCCN)NC(=O)[C@H]2CCCN2C(=O)[C@H](NC(=O)[C@@H](NC(=O)[C@@H](NC(=O)[C@H](NC(=O)CCCC(C)C)C(C)C)[C@@H](C)O)C(C)C)C(C)C)C(C)C)[C@H](C)OC(=O)[C@H](C(C)C)NC1=O
Ans. 2340

Qu. Answer briefly: GI50 recorded on LNCaP for C/C=C1\NC(=O)[C@H](Cc2ccccc2)NC(=O)[C@@H](C(C)C)NC(=O)[C@@H]([C@H](C)CC)NC(=O)[C@H](NC(=O)[C@H](NC(=O)[C@H](CCCN)NC(=O)[C@H]2CCCN2C(=O)[C@H](NC(=O)[C@@H](NC(=O)[C@H](C)NC(=O)[C@H](NC(=O)CCCC(C)C)C(C)C)C(C)C)C(C)C)[C@H](C)CC)[C@H](C)OC(=O)[C@H](C(C)C)NC1=O
Ans. 1380

Qu. Answer briefly: GI50 recorded on LNCaP for C/C=C1\NC(=O)[C@H](Cc2ccccc2)NC(=O)[C@@H](C(C)C)NC(=O)[C@@H]([C@H](C)CC)NC(=O)[C@H](NC(=O)[C@H](NC(=O)[C@H](CCCN)NC(=O)[C@H]2CCCN2C(=O)[C@H](NC(=O)[C@@H](NC(=O)[C@@H](NC(=O)[C@H](NC(=O)Cc2ccc(C(F)(F)F)cc2)C(C)C)[C@@H](C)O)C(C)C)C(C)C)[C@H](C)CC)[C@H](C)OC(=O)[C@H](C(C)C)NC1=O
Ans. 1630

src = ChEMBL document CHEMBL1156597
